target: Tyrosine-protein phosphatase non-receptor type 1 [1-322] (Human)
Sequence (P18031 whole entry): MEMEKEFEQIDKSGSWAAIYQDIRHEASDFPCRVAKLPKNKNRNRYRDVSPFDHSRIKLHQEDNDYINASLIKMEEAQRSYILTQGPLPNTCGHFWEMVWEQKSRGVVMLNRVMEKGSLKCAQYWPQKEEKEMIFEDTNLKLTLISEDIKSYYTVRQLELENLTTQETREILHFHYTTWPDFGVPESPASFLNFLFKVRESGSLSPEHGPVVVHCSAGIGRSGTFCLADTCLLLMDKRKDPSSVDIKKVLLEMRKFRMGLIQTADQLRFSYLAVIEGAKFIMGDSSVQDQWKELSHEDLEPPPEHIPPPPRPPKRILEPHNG
parameter measured: pKi
Field pKi (float): negative decimal logarithm of the concentration in molar.

[in] Record request: pKi value, item Cc1ccc(-c2ccccc2)cc1N1CC(=O)NS1(=O)=O
[out] 4.41
